Ref: patent US20250171516A1

biological target: GLP-1R (Homo sapiens, UniProt P43220); assay: GLP-1R cAMP assay of peptides (Tables 10, 14, 15); format: cell-based; details: Table 10
Sequence (P43220 24-463): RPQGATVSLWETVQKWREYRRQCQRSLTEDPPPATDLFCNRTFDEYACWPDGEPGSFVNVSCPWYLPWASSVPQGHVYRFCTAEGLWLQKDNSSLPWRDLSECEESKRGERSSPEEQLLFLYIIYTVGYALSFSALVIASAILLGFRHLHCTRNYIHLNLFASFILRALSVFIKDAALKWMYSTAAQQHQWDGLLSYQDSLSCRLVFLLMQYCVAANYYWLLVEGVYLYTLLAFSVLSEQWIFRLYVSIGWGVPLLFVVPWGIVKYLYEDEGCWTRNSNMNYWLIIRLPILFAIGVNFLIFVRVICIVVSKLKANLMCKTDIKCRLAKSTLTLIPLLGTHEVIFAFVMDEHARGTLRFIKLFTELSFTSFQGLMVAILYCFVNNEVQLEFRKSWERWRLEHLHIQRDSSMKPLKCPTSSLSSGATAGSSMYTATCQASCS
Non-standard residues stand in square brackets, D forms with d. Residues, ends and D or L forms follow the SMILES beside them. *: point of attachment. Malonyl(2,2-Me2,histaminyl) = CC(C)(C(=O)NCCc1cnc[nH]1)C(=O)*; Ala(1H-tetrazol-5-yl) = N[C@@H](Cc1nnn[nH]1)C(=O)O; αMePhe(2-F) = C[C@](N)(Cc1ccccc1F)C(=O)O

molecule	GLP-1R CAMP Max
C[C@@H](O)[C@H](NC(=O)CNC(=O)[C@H](Cc1nn[nH]n1)NC(=O)C(C)(C)C(=O)NCCc1cnc[nH]1)C(=O)N[C@@](C)(Cc1ccccc1F)C(=O)O [AA10-AA9-AA8-AA7-AA6-OH] ({Malonyl(2,2-Me2,histaminyl)}-[Ala(1H-tetrazol-5-yl)]GT[αMePhe(2-F)]-OH)	−1.13%
CC(C)(C(=O)NCCc1cnc[nH]1)C(=O)N[C@@H](Cc1nn[nH]n1)C(=O)NCC(=O)O [AA10-AA9-AA8-OH]	−1.39%
C[C@@H](O)[C@H](NC(=O)[C@](C)(Cc1ccccc1F)NC(=O)[C@@H](NC(=O)CNC(=O)[C@H](Cc1nn[nH]n1)NC(=O)C(C)(C)C(=O)NCCc1cnc[nH]1)[C@@H](C)O)C(=O)O [AA10-AA9-AA8-AA7-AA6-AA5-OH] ({Malonyl(2,2-Me2,histaminyl)}-[Ala(1H-tetrazol-5-yl)]GT[αMePhe(2-F)]T-OH)	−1.23%
CCc1cc(OCCCCn2cc(COCCOCCOCCOCCOCCOCCOCCOCCNC(=O)CC[C@H](N)C(=O)O)nn2)ccc1-c1ccc(C[C@H](NC(=O)[C@H](CC(=O)O)NC(=O)[C@H](CO)NC(=O)[C@@H](NC(=O)C(C)(Cc2ccccc2F)NC(=O)[C@@H](NC(=O)CNC(=O)[C@H](Cc2nn[nH]n2)NC(=O)C(C)(C)C(=O)NCCc2cnc[nH]2)[C@@H](C)O)[C@@H](C)O)C(=O)N[C@@H](CCCc2cc(C)cc(C)c2)C(=O)O)cc1 (stereo partly shown) [Q-M6009]	106.2%

* * *

target: GLP-1R (Homo sapiens, UniProt P43220); experiment: GLP-1R cAMP assay of peptides (Tables 10, 14, 15); type: cell-based; conditions: Table 14, peptide amides; read-out: cAMP EC50
Non-standard residues stand in square brackets, D forms with d. Residues, ends and D or L forms follow the SMILES beside them. Bip(2'-Et,4'-O(CH2)4N3) = CCc1cc(OCCCCN=[N+]=[N-])ccc1-c1ccc(C[C@H](N)C(=O)O)cc1; Nva(5-(3,5-Me2Ph)) = Cc1cc(C)cc(CCC[C@H](N)C(=O)O)c1; Ala(1H-tetrazol-5-yl) = N[C@@H](Cc1nnn[nH]1)C(=O)O; αMePhe(2-F) = C[C@](N)(Cc1ccccc1F)C(=O)O

compound	EC50 [nM]
CCc1cc(OCCCCN=[N+]=[N-])ccc1-c1ccc(C[C@H](NC(=O)[C@H](CC(=O)O)NC(=O)[C@H](CO)NC(=O)[C@@H](NC(=O)[C@](C)(Cc2ccccc2F)NC(=O)[C@@H](NC(=O)CNC(=O)[C@@H](N)Cc2nn[nH]n2)[C@@H](C)O)[C@@H](C)O)C(=O)N[C@@H](CCCc2cc(C)cc(C)c2)C(N)=O)cc1 [M2383] (H-[Ala(1H-tetrazol-5-yl)]GT[αMePhe(2-F)]TSD[Bip(2'-Et,4'-O(CH2)4N3)][Nva(5-(3,5-Me2Ph))]-NH2)	280

* * *

target: GLP-1R (Homo sapiens, UniProt P43220); experiment: GLP-1R cAMP assay of peptides (Tables 10, 14, 15); type: cell-based; details: Table 10; read-out: GLP-1R CAMP EC50
Starred links: 1 amine or outer side, 2 acyl side, 3 side chain; linkers in the order of their positions; H or OH if unused. Non-standard residues stand in square brackets, D forms with d. Residues, ends and D or L forms follow the SMILES beside them. *: point of attachment. X1 = CCc1cc(OCCCCn2cc(COCCOCCOCCOCCOCCOCCOCCOCCN)nn2)ccc1-c1ccc(C[C@H](N[*:1])C(=O)[*:2])cc1; Malonyl(2,2-Me2,histaminyl) = CC(C)(C(=O)NCCc1cnc[nH]1)C(=O)*; Ala(1H-tetrazol-5-yl) = N[C@@H](Cc1nnn[nH]1)C(=O)O; αMePhe(2-F) = C[C@](N)(Cc1ccccc1F)C(=O)O
Recorded EC50 by entry
endpoint-name: EC50

molecule	endpoint-name	measured-result
C[C@@H](O)[C@H](NC(=O)CNC(=O)[C@H](Cc1nn[nH]n1)NC(=O)C(C)(C)C(=O)NCCc1cnc[nH]1)C(=O)N[C@@](C)(Cc1ccccc1F)C(=O)O [AA10-AA9-AA8-AA7-AA6-OH] ({Malonyl(2,2-Me2,histaminyl)}-[Ala(1H-tetrazol-5-yl)]GT[αMePhe(2-F)]-OH)	EC50	> 1000 nM
CCc1cc(OCCCCn2cc(COCCOCCOCCOCCOCCOCCOCCOCCN)nn2)ccc1-c1ccc(C[C@H](NC(=O)[C@H](CC(=O)O)NC(=O)[C@H](CO)NC(=O)[C@@H](NC(=O)[C@](C)(Cc2ccccc2F)NC(=O)[C@@H](NC(=O)CNC(=O)[C@H](Cc2nnn[nH]2)NC(=O)C(C)(C)C(=O)NCCc2cnc[nH]2)[C@@H](C)O)[C@@H](C)O)C(N)=O)cc1 ({Malonyl(2,2-Me2,histaminyl)}-[Ala(1H-tetrazol-5-yl)]GT[αMePhe(2-F)]TSD[X1]-NH2)	EC50	59.6 nM
CC(C)(C(=O)NCCc1cnc[nH]1)C(=O)N[C@@H](Cc1nn[nH]n1)C(=O)NCC(=O)O	EC50	> 1000 nM

* * *

Listing: EC50 of selected molecules
target: GLP-1R (Homo sapiens, UniProt P43220); assay: GLP-1R cAMP assay of peptides (Tables 10, 14, 15); format: cell-based; settings: Table 14, peptide amides; read-out: cAMP EC50
Starred links: 1 amine or outer side, 2 acyl side, 3 side chain; linkers in the order of their positions; H or OH if unused. Non-standard residues stand in square brackets, D forms with d. Residues, ends and D or L forms follow the SMILES beside them. *: point of attachment. X3 = CCc1cc(OCCCCn2cc(COCCOCCOCCOCCOCCOCCOCCOCCOCCOCCOCCOCCN)nn2)ccc1-c1ccc(C[C@H](N[*:1])C(=O)[*:2])cc1; Bip(2'-Et,4'-O(CH2)4N3) = CCc1cc(OCCCCN=[N+]=[N-])ccc1-c1ccc(C[C@H](N)C(=O)O)cc1; Malonyl(2,2-Me2,histaminyl) = CC(C)(C(=O)NCCc1cnc[nH]1)C(=O)*; Nva(5-(3,5-Me2Ph)) = Cc1cc(C)cc(CCC[C@H](N)C(=O)O)c1; Ala(1H-tetrazol-5-yl) = N[C@@H](Cc1nnn[nH]1)C(=O)O; αMePhe(2-F) = C[C@](N)(Cc1ccccc1F)C(=O)O

molecule	unit-text	EC50
CCc1cc(OCCCCN=[N+]=[N-])ccc1-c1ccc(C[C@H](NC(=O)[C@H](CC(=O)O)NC(=O)[C@H](CO)NC(=O)[C@@H](NC(=O)[C@](C)(Cc2ccccc2F)NC(=O)[C@@H](NC(=O)CNC(=O)[C@H](Cc2nn[nH]n2)NC(=O)C(C)(C)C(=O)NCCc2cnc[nH]2)[C@@H](C)O)[C@@H](C)O)C(=O)N[C@@H](CCCc2cc(C)cc(C)c2)C(N)=O)cc1 [M2361] ({Malonyl(2,2-Me2,histaminyl)}-[Ala(1H-tetrazol-5-yl)]GT[αMePhe(2-F)]TSD[Bip(2'-Et,4'-O(CH2)4N3)][Nva(5-(3,5-Me2Ph))]-NH2)	nM	0.359
CCc1cc(OCCCCN=[N+]=[N-])ccc1-c1ccc(C[C@H](NC(=O)[C@H](CC(=O)O)NC(=O)[C@H](CO)NC(=O)[C@@H](NC(=O)[C@](C)(Cc2ccccc2F)NC(=O)[C@@H](NC(=O)CNC(=O)[C@H](Cc2nnn[nH]2)NC(=O)C(C)(C)C(=O)NCCc2cnc[nH]2)[C@@H](C)O)[C@@H](C)O)C(=O)N[C@@H](CCCc2cc(C)cc(C)c2)C(N)=O)cc1 [M2361] ({Malonyl(2,2-Me2,histaminyl)}-[Ala(1H-tetrazol-5-yl)]GT[αMePhe(2-F)]TSD[Bip(2'-Et,4'-O(CH2)4N3)][Nva(5-(3,5-Me2Ph))]-NH2)	nM	0.497
CCc1cc(OCCCCn2cc(COCCOCCOCCOCCOCCOCCOCCOCCOCCOCCOCCOCCN)nn2)ccc1-c1ccc(C[C@H](NC(=O)[C@H](CC(=O)O)NC(=O)[C@H](CO)NC(=O)[C@@H](NC(=O)[C@](C)(Cc2ccccc2F)NC(=O)[C@@H](NC(=O)CNC(=O)[C@H](Cc2nn[nH]n2)NC(=O)C(C)(C)C(=O)NCCc2c[nH]cn2)[C@@H](C)O)[C@@H](C)O)C(=O)N[C@@H](CCCc2cc(C)cc(C)c2)C(N)=O)cc1 ({Malonyl(2,2-Me2,histaminyl)}-[Ala(1H-tetrazol-5-yl)]GT[αMePhe(2-F)]TSD[X3][Nva(5-(3,5-Me2Ph))]-NH2)	nM	1.89
